Value source: patent EP4610269A1

# testSystem: human uPAR (uPAR-Fc) (Homo sapiens)
# Construct: comprising amino acids Leu23-Arg303 according to UniProt entry Q03405.1; purchased R&D Systems 10378-UK-100
# Sequence (Q03405 23-303): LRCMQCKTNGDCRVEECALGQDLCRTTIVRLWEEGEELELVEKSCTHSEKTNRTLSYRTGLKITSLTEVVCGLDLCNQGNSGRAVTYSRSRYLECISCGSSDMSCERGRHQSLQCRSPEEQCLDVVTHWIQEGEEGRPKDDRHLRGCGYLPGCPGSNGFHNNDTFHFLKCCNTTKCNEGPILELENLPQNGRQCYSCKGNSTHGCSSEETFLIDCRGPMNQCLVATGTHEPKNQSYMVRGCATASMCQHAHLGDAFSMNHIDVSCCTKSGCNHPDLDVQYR
# method: Surface plasmon resonance (SPR) assay, single cycle kinetics
# Type: binding
# recordedConditions: pKD category for uPAR SPR activity assay; uPAR-Fc on Protein A-Chip, single cycle kinetics, 25°C; read-out: pKD CAT (converted)
Where a SMILES comes first, the peptide text is derived from it. Bridges are numbered along the chain shown (N, C = ends). [ ]: non-standard residue; d: D form. The star is where a group is joined. DOTA = O=C(O)CN1CCN(CC(=O)O)CCN(CC(=O)*)CCN(CC(=O)O)CC1; Phe(2-Cl) = N[C@@H](Cc1ccccc1Cl)C(=O)O; Pro(4R-NH2) = N[C@H]1CN[C@H](C(=O)O)C1; Hyp = O=C(O)[C@@H]1C[C@@H](O)CN1; Pentanoyl(4-Me) = CC(C)CCC(=O)*; Cit = NC(=O)NCCC[C@H](N)C(=O)O; dOrn = NCCC[C@@H](N)C(=O)O; Nle = CCCC[C@H](N)C(=O)O; Nva = CCC[C@H](N)C(=O)O; Pentanoyl = CCCCC(=O)*
valueType: Kd

Examples with answers:
INSERT INTO measurements (compound, testsystem, valuetype, measuredvalue) VALUES
  ('CC[C@H](C)[C@@H]1NC(=O)[C@@H](CCCCNC(=O)CN2CCN(CC(=O)O)CCN(CC(=O)O)CCN(CC(=O)O)CC2)NC(=O)[C@@H]2CCCN2C(=O)[C@H](Cc2ccccc2)NC(=O)[C@H](Cc2ccc(O)cc2)NC(=O)[C@H](CCC(N)=O)NC(=O)[C@H](CCCNC(=N)N)NC(=O)[C@@H](NC(=O)CCC(C)C)CSSC[C@@H](C(N)=O)NC(=O)[C@H](CC(C)C)NC1=O [UPAR-367] ({Pentanoyl(4-Me)}-CRQYFP[dK](DOTA)ILC-NH2; disulfide 1-10)', 'human uPAR (uPAR-Fc) (Homo sapiens)', 'Kd', '10 to 100 nM'),
  ('CCCCC(=O)N[C@H]1CSSC[C@@H](C(N)=O)NC(=O)[C@H](CCC)NC(=O)[C@H]([C@@H](C)CC)NC(=O)[C@@H](CCCN)NC(=O)[C@@H]2CCCN2C(=O)[C@H](Cc2ccccc2)NC(=O)[C@H](Cc2ccc(O)cc2)NC(=O)[C@H](CCC(N)=O)NC(=O)[C@H](CCCNC(=N)N)NC1=O [UPAR-438] (Pentanoyl-CRQYFP[dOrn]I[Nva]C-NH2; disulfide 1-10)', 'human uPAR (uPAR-Fc) (Homo sapiens)', 'Kd', '1.58 to 10 nM'),
  ('CCCCC(=O)N[C@H]1CSSC[C@@H](C(N)=O)NC(=O)[C@H](CCC)NC(=O)[C@H]([C@@H](C)CC)NC(=O)[C@@H]2C[C@@H](O)CN2C(=O)[C@@H]2CCCN2C(=O)[C@H](Cc2ccccc2)NC(=O)[C@H](CCCCN)NC(=O)[C@H](CCC(N)=O)NC(=O)[C@H](CCCNC(=N)N)NC1=O [UPAR-442] (Pentanoyl-CRQKFP[Hyp]I[Nva]C-NH2; disulfide 1-10)', 'human uPAR (uPAR-Fc) (Homo sapiens)', 'Kd', '10 to 100 nM'),
  ('CCCCC(=O)N[C@H]1CSSC[C@@H](C(N)=O)NC(=O)[C@H](CCC)NC(=O)[C@H]([C@@H](C)CC)NC(=O)[C@@H]2C[C@@H](N)CN2C(=O)[C@@H]2CCCN2C(=O)[C@H](Cc2ccccc2)NC(=O)[C@H](Cc2ccc(O)cc2)NC(=O)[C@H](CCCCNC(=O)CN2CCN(CC(=O)O)CCN(CC(=O)O)CCN(CC(=O)O)CC2)NC(=O)[C@H](CCCNC(N)=O)NC1=O [UPAR-377] (Pentanoyl-C[Cit]K(DOTA)YFP[Pro(4R-NH2)]I[Nva]C-NH2; disulfide 1-10)', 'human uPAR (uPAR-Fc) (Homo sapiens)', 'Kd', '< 1.58 nM'),
  ('CCCCC(=O)N[C@H]1CSSC[C@@H](C(N)=O)NC(=O)[C@H](CC(C)C)NC(=O)[C@H]([C@@H](C)CC)NC(=O)[C@@H]2CCCN2C(=O)[C@@H]2CCCN2C(=O)[C@H](Cc2ccccc2)NC(=O)[C@H](Cc2ccc(O)cc2)NC(=O)[C@H](CCCCNC(=O)CN2CCN(CC(=O)O)CCN(CC(=O)O)CCN(CC(=O)O)CC2)NC(=O)[C@H](CCCNC(N)=O)NC1=O [UPAR-396] (Pentanoyl-C[Cit]K(DOTA)YFPPILC-NH2; disulfide 1-10)', 'human uPAR (uPAR-Fc) (Homo sapiens)', 'Kd', '< 1.58 nM'),
  ('CCCCC(=O)N[C@H]1CSSC[C@@H](C(N)=O)NC(=O)[C@H](CCC)NC(=O)[C@H]([C@@H](C)CC)NC(=O)[C@@H]2C[C@@H](O)CN2C(=O)[C@@H]2CCCN2C(=O)[C@H](Cc2ccccc2)NC(=O)[C@H](Cc2ccc(O)cc2)NC(=O)[C@H](CCC(N)=O)NC(=O)[C@@H]2CCCN2C1=O [UPAR-361] (Pentanoyl-CPQYFP[Hyp]I[Nva]C-NH2; disulfide 1-10)', 'human uPAR (uPAR-Fc) (Homo sapiens)', 'Kd', '< 1.58 nM'),
  ('CC[C@H](C)[C@@H]1NC(=O)[C@@H]2CCCN2C(=O)[C@@H]2CCCN2C(=O)[C@H](Cc2ccccc2)NC(=O)[C@H](Cc2ccc(O)cc2)NC(=O)[C@H](CCCCNC(=O)CN2CCN(CC(=O)O)CCN(CC(=O)O)CCN(CC(=O)O)CC2)NC(=O)[C@H](CCCNC(N)=O)NC(=O)[C@@H](NC(=O)CCC(C)C)CSSC[C@@H](C(N)=O)NC(=O)[C@H](CC(C)C)NC1=O [UPAR-382] ({Pentanoyl(4-Me)}-C[Cit]K(DOTA)YFPPILC-NH2; disulfide 1-10)', 'human uPAR (uPAR-Fc) (Homo sapiens)', 'Kd', '< 1.58 nM'),
  ('CCCCC(=O)N[C@H]1CSSC[C@@H](C(N)=O)NC(=O)[C@H](CCC)NC(=O)[C@H]([C@@H](C)CC)NC(=O)[C@@H]2C[C@@H](O)CN2C(=O)[C@@H]2CCCN2C(=O)[C@H](Cc2ccccc2)NC(=O)[C@H](Cc2ccccc2Cl)NC(=O)[C@H](CCC(N)=O)NC(=O)[C@H](CCCNC(=N)N)NC1=O [UPAR-395] (Pentanoyl-CRQ[Phe(2-Cl)]FP[Hyp]I[Nva]C-NH2; disulfide 1-10)', 'human uPAR (uPAR-Fc) (Homo sapiens)', 'Kd', '< 1.58 nM');

Name the reported Kd value associated with the compound CCCC[C@@H]1NC(=O)[C@H]([C@@H](C)CC)NC(=O)[C@@H](C)NC(=O)[C@@H]2CCCN2C(=O)[C@H](Cc2ccccc2)NC(=O)[C@H](Cc2ccc(O)cc2)NC(=O)[C@H](CCC(N)=O)NC(=O)[C@H](CCCNC(N)=O)NC(=O)[C@@H](NC(=O)CCC(C)C)CSSC[C@@H](C(N)=O)NC1=O [UPAR-345] ({Pentanoyl(4-Me)}-C[Cit]QYFP[dA]I[Nle]C-NH2; disulfide 1-10)
1.58 to 10 nM

For CC[C@H](C)[C@@H]1NC(=O)[C@@H](C)NC(=O)[C@@H]2CCCN2C(=O)[C@H](Cc2ccccc2)NC(=O)[C@H](Cc2ccc(O)cc2)NC(=O)[C@H](CCCCNC(=O)CN2CCN(CC(=O)O)CCN(CC(=O)O)CCN(CC(=O)O)CC2)NC(=O)[C@H](CC(=O)O)NC(=O)[C@@H](NC(=O)[C@H](CC(C)C)NC(=O)[C@H](CC(=O)O)NC(C)=O)CSSC[C@@H](C(N)=O)NC(=O)[C@H](CC(C)C)NC1=O [UPAR-432] (Ac-DLCDK(DOTA)YFP[dA]ILC-NH2; disulfide 3-12) then?
10 to 100 nM
